# assayProtocol: Selectivity index, ratio of IC50 for rat L6 cells to IC50 for bloodstream form of Trypanosoma brucei rhodesiense STIB900
# Type: toxicity
# particulars: read-out: Ratio IC50
Below: a set of entries, each annotated with reported selectivity ratio.
The answer should be written as a number, with no unit following it.

>  <molSmiles>
C=C1C(=O)O[C@H]2/C=C(/C)[C@@H](O)C[C@H](O)C(=C)C[C@H](OC(=O)/C(C)=C/C)[C@@H]12

>  <selectivity ratio>
14.1

$$$$

Lookup: Consider the compound `C=C(C)C(=O)O[C@H]1C/C(C)=C/C[C@H](O)/C(C)=C\[C@@H]2OC(=O)C(=C)[C@@H]21` . State its measured selectivity ratio.
Found: 6.1

Lookup: Consider the compound `C=C1C(=O)O[C@@H](/C=C(\C)C=O)[C@@H]1[C@H](/C=C(/C)C(C)=O)OC(=O)/C(C)=C\C` . State its measured selectivity ratio.
Found: 4.3

Lookup: Consider the compound `C=C1C(=O)O[C@H]2/C=C(/C)[C@@H](O)C[C@@H]3O[C@]3(C)C[C@H](OC(=O)/C(C)=C/C)[C@@H]12` . State its measured selectivity ratio.
Found: 4.5

Lookup: Consider the compound `C=C1C(=O)O[C@H]2/C=C(/C)[C@@H](O)C[C@@H](O)/C(C)=C\[C@H](OC(=O)/C(C)=C\C)[C@@H]12` . State its measured selectivity ratio.
Found: 3.9

Lookup: Consider the compound `C=C1C(=O)O[C@H]2/C=C(/C)[C@@H](O)C/C=C(\C=O)C[C@H](OC(=O)/C(C)=C\C)[C@@H]12` . State its measured selectivity ratio.
Found: 3.9

* * *

# Test system: Trypanosoma brucei rhodesiense
# assayProtocol: Antiprotozoal activity against bloodstream form of Trypanosoma brucei rhodesiense STIB900 after 72 hrs by Alamar Blue assay
# Format: functional
# particulars: STIB900, 72 h
endpointLabel: pIC50
Scale: negative log10 of molar concentration, which is what pIC50 denotes.

>  <molSmiles>
C=C(C)C(=O)O[C@H]1C/C(C)=C/C[C@H](O)/C(C)=C\[C@@H]2OC(=O)C(=C)[C@@H]21

>  <resultNumber>
5.34

$$$$
>  <molSmiles>
C=C1C(=O)O[C@H]2[C@H]1[C@@H](OC(=O)/C(C)=C\C)CC(=C)[C@@H]1C=C[C@@](C)(O)[C@H]21

>  <resultNumber>
5.89

$$$$
>  <molSmiles>
C=C1C(=O)O[C@H]2/C=C(/C)[C@@H](O)C/C=C(\C)C[C@H](OC(=O)/C(C)=C\C)[C@@H]12

>  <resultNumber>
5.68

$$$$

Continue with the next molecule.
Lookup: Consider the molecule `C=C1C(=O)O[C@H]2/C=C(/C)[C@@H](O)C[C@H](O)C(=C)C[C@H](OC(=O)/C(C)=C/C)[C@@H]12` . State its measured pIC50.
Found: 6.44

src = ChEMBL document CHEMBL4038265
